// data source = patent US6420401B1

target: human leukocyte cathepsin G (Cat G) (Homo sapiens, UniProt P08311); assay: Inactivation of cathepsin G, progress curve method; format: biochemical; details: Table 5, sulfonamides 31-49
Sequence (P08311 21-244): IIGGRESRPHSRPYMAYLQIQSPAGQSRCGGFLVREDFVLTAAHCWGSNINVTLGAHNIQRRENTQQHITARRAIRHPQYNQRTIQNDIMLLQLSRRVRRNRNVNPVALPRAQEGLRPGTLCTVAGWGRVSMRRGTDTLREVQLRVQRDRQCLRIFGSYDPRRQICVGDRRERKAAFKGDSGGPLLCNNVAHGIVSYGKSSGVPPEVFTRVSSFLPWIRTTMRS
Hi there, I'd appreciate the recorded kinact/KI for every entry that follows.
Dear colleague, please return just the value in M⁻¹ s⁻¹, with no unit written.

What measured kinact/KI goes with CCCCOC(=O)N(CN1C(=O)C(Cc2ccccc2)N(Cc2ccccc2)S1(=O)=O)S(C)(=O)=O (centres unmarked) ?
5380

Follow-up entry: CC(C)CC1C(=O)N(CN(C(=O)Cc2ccccc2)S(C)(=O)=O)S(=O)(=O)N1C (centres unmarked)
220

Again, but for CCOC(=O)CNC(=O)N(CN1C(=O)C(CC(C)C)N(Cc2ccccc2)S1(=O)=O)S(C)(=O)=O (centres unmarked)
70

Also need CC(C)CC1C(=O)N(CN(C(=O)CNC(=O)OCc2ccccc2)S(C)(=O)=O)S(=O)(=O)N1Cc1ccccc1 (centres unmarked) , thanks.
70

// query: CC(C)CC1C(=O)N(CN(C(=O)CNC(=O)OCc2ccccc2)S(C)(=O)=O)S(=O)(=O)N1C (centres unmarked)
60

###

Molecular target: human leukocyte cathepsin G (Cat G) (Homo sapiens, UniProt P08311)
Test: Inactivation of cathepsin G, progress curve method
Format: biochemical
Conditions: Table 6, heterocyclic sulfides 53-69
Procedure: An in vitro assay was used to screen compounds of the invention for the ability to reduce or inhibit serine protease activity. The human leukocyte elastase (HLE), cathepsin G (Cat G) and proteinase 3 (PR 3) assays have each been described in detail, Groutas et al. (1997) Biochemistry 36, 4739-4750. […] The rates of inactivation of HLE, Cat G or PR3 by each compound (or library of compounds) were determined by the progress curve method [Morrison, J. F. & Walsh, C. […]
So I've got a bunch of compounds here, and I need their kinact/KI values.
Give the quantity in M⁻¹ s⁻¹, number only.

For the compound Nc1ccc2nc(SCN3C(=O)C(Cc4ccccc4)N(Cc4ccccc4)S3(=O)=O)oc2c1 (centres unmarked) , what kinact/KI is on record?
15700

Also need O=C1C(Cc2ccccc2)N(Cc2ccccc2)S(=O)(=O)N1CSc1nc2ccccc2o1 (centres unmarked) , thanks.
17100

What about this compound? CN1C(Cc2ccccc2)C(=O)N(CSc2nc3ccccc3o2)S1(=O)=O (centres unmarked)
430

Further, for CC(C)CC1C(=O)N(CSc2nc3ccccc3o2)S(=O)(=O)N1Cc1ccccc1 (centres unmarked) ?
60

What do you get for CC(C)CC1C(=O)N(CSc2nc3ccccc3o2)S(=O)(=O)N1C (centres unmarked) ?
30

CC(C)CC1C(=O)N(CSc2nc3cc(-c4ccccc4)ccc3o2)S(=O)(=O)N1Cc1ccccc1 (centres unmarked) ?
50

Also CN1C(Cc2ccccc2)C(=O)N(CSc2nnc(-c3ccccc3)o2)S1(=O)=O (centres unmarked) , if possible.
490

What about O=C1C(Cc2ccccc2)N(Cc2ccccc2)S(=O)(=O)N1CSc1nnc(-c2ccccc2)o1 (centres unmarked) ?
17500

###

target: human leukocyte elastase (HLE) (Homo sapiens, UniProt P08246); assay: Inactivation of human leukocyte elastase, progress curve method; type: biochemical; settings: Table 5, sulfonamides 31-49; apparent second-order rate constant
Sequence (P08246 30-267): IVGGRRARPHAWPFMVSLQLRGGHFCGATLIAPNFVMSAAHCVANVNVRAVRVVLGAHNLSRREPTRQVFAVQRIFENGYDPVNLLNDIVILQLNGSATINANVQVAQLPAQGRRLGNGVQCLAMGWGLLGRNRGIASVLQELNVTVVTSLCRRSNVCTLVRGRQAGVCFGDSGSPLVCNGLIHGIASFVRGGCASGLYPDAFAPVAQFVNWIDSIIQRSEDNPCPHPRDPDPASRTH
Value type: kinact/KI (M⁻¹ s⁻¹)
Provide the reading as a plain figure in M⁻¹ s⁻¹.

Please provide the recorded kinact/KI for CC(C)COC(=O)N(CN1C(=O)C(CC(C)C)N(C)S1(=O)=O)S(C)(=O)=O (stereo not drawn) , tested on human leukocyte elastase (HLE) (Homo sapiens, UniProt P08246).
11900

Try this compound too: CC(C)CC1C(=O)N(CN(C(=O)c2ccccc2)S(C)(=O)=O)S(=O)(=O)N1C (stereo not drawn)
71000

Note, next up: CC(C)CC1C(=O)N(CN(C(=O)CNC(=O)OC(C)(C)C)S(C)(=O)=O)S(=O)(=O)N1Cc1ccccc1 (stereo not drawn)
149000

Repeat for the following compound: CCCCOC(=O)N(CN1C(=O)C(CC(C)C)N(C)S1(=O)=O)S(C)(=O)=O (stereo not drawn)
40500

Further, for CCOC(=O)CNC(=O)N(CN1C(=O)C(CC(C)C)N(Cc2ccccc2)S1(=O)=O)S(C)(=O)=O (stereo not drawn) ?
14100

Please do the same for CC(C)CC1C(=O)N(CN(C(=O)Cc2ccccc2)S(C)(=O)=O)S(=O)(=O)N1C (stereo not drawn) as well.
28300

Moving on to CC(C)CC1C(=O)N(CN(C(=O)CNC(=O)OCc2ccccc2)S(C)(=O)=O)S(=O)(=O)N1Cc1ccccc1 (stereo not drawn)
134000

Again, but for CCCCOC(=O)N(CN1C(=O)C(Cc2ccccc2)N(Cc2ccccc2)S1(=O)=O)S(C)(=O)=O (stereo not drawn)
1970

Cool, now CC(C)CC1C(=O)N(CN2C(=O)C(CC(C)C)N(Cc3ccccc3)S2(=O)=O)S(=O)(=O)N1Cc1ccccc1 (stereo not drawn)
850

Repeat with CC(C)CC1C(=O)N(CN(C(=O)CNC(=O)OC(C)(C)C)S(C)(=O)=O)S(=O)(=O)N1C (stereo not drawn)
140000

Note, next up: CC(C)CC1C(=O)N(CN(C(=O)OCc2ccccc2)S(C)(=O)=O)S(=O)(=O)N1C (stereo not drawn)
22000

Next entry: CC(C)CC1C(=O)N(CN(C(=O)CNC(=O)OCc2ccccc2)S(C)(=O)=O)S(=O)(=O)N1C (stereo not drawn)
229000
